Test system: L6
Experiment: Cytotoxicity against rat L6 cells after 70 hrs by alamar blue assay
Assay type: cell-based
Settings: L6, 70 h
Let's look at some compounds and their measured pIC50.
In simple prose, pIC50 is minus the logarithm base ten of a concentration in moles per litre.

Completed entries (count: 2):
C=C1C(=O)O[C@@H]2[C@H]3C(=C)[C@@H](OCOC)C[C@H]3C(=C)C[C@H](O)[C@@H]12    6.07
C=C(CO)C(=O)O[C@H]1CC(=C)[C@@H]2C[C@H](O)C(=C)[C@@H]2[C@H]2OC(=O)C(=C)[C@@H]21    5.66

Turning now to a further record.
input: What does the record list as pIC50 for `C=C(COCOC)C(=O)O[C@H]1CC(=C)[C@@H]2C[C@H](OCOC)C(=C)[C@@H]2[C@H]2OC(=O)C(=C)[C@@H]21` ?
output: 6.77

---

Tested on: L6
Assay: Cytotoxicity against rat L6 cells after 70 hrs by alamar blue assay
Assay type: cell-based
Details: L6, 70 h
METRIC_NAME: pIC50
Kindly note that pIC50 refers to -log10 of the concentration in mol/L and answer with the value alone.

Completed entries (count: 4):
C=C1C(=O)O[C@@H]2[C@H]3C(=C)[C@@H](O)C[C@H]3C(=C)C[C@H](O)[C@@H]12    5.31
C=C(COC(C)=O)C(=O)O[C@H]1CC(=C)[C@@H]2C[C@H](OC(C)=O)C(=C)[C@@H]2[C@H]2OC(=O)C(=C)[C@@H]21    5.31
C=C(C)C(=O)O[C@H]1CC(=C)[C@@H]2C[C@H](O)C(=C)[C@@H]2[C@H]2OC(=O)C(=C)[C@@H]21    6.48
C=C(C)C(=O)O[C@H]1CC(=C)[C@@H]2C[C@H](OCOC)C(=C)[C@@H]2[C@H]2OC(=O)C(=C)[C@@H]21    6.52

Okay, next one:
input: // lookup pIC50 for `C=C(COC(C)=O)C(=O)O[C@H]1CC(=C)[C@@H]2C[C@H](O)C(=C)[C@@H]2[C@H]2OC(=O)C(=C)[C@@H]21`
output: 5.19
